SYSTEM_TESTED: T1, full-length beta-Catenin (Uniprot ID P35222) (Homo sapiens (Human), UniProt P35222 1-781)
T1 construct: also called bCat; B-Catenin
T1 sequence: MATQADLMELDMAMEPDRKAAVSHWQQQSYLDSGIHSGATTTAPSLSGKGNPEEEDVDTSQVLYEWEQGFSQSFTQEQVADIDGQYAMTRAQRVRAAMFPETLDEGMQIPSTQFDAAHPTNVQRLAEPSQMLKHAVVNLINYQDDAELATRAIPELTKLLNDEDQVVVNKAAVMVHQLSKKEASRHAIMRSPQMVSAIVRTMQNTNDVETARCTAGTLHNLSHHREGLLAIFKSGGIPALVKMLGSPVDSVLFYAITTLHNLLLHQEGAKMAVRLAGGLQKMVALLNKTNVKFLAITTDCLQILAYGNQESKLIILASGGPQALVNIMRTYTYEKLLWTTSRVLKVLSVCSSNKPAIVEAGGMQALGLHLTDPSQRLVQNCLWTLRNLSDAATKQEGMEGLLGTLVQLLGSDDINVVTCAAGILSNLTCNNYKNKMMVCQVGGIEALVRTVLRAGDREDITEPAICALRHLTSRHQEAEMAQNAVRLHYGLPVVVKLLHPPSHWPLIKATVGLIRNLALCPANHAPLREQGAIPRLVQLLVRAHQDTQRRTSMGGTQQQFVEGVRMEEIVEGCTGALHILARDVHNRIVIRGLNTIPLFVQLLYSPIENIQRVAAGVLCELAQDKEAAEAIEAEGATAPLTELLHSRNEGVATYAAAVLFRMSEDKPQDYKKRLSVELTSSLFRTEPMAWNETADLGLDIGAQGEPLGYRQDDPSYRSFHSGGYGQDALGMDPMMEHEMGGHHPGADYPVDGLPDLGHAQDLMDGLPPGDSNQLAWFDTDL
ASSAY_METHOD_TEXT: fluorescence polarization competition; 10 nM full-length beta-catenin + 10 nM 5FAM-TCF4(10-53) probe
Starred links: 1 amine or outer side, 2 acyl side, 3 side chain; linkers in the order of their positions; H or OH if unused. Positions of bridges follow the written chain, without caps; N, C: chain ends. Non-standard residues stand in square brackets, D forms with d. Primed or numbered codes have the meaning given here. B5(20) = 2-amino-2-(pent-4-en-1-yl)hept-6-enoic acid = bis(4-pentenyl)glycine, stitching residue, C=CCCCC(CCCC=C)(N[*:1])C(=O)[*:2]; B5(21) = 2-amino-2-(pent-4-en-1-yl)hept-6-enoic acid, bis(4-pentenyl)glycine (stitching residue), C=CCCCC(CCCC=C)(N[*:1])C(=O)[*:2]; B5(6) = 2-amino-2-(pent-4-en-1-yl)hept-6-enoic acid (bis(4-pentenyl)glycine), stitching residue, C=CCCCC(CCCC=C)(N[*:1])C(=O)[*:2]; (NHiPr)AsnR = N4-isopropyl-L-asparagine, CC(C)NC(=O)C[C@H](N[*:1])C(=O)[*:2]; (NHEt)AsnR = N4-ethyl-L-asparagine, CCNC(=O)C[C@H](N[*:1])C(=O)[*:2]; Phe(2-CONH2) = NC(=O)c1ccccc1C[C@H](N)C(=O)O; Phe(2-OMe) = COc1ccccc1C[C@H](N)C(=O)O; Bta = N[C@@H](Cc1csc2ccccc12)C(=O)O; αAllylPro = C=CC[C@@]1(C(=O)O)CCCN1; S8 = C=CCCCCCC[C@](C)(N)C(=O)O
# reported log10 of EC50; entries follow
Scale: decimal log of EC50, EC50 in nM.

>  <BINDER>
Ac-[αAllylPro]DA[B5(21)][(NHiPr)AsnR]DAAFV[S8]F[Bta]Q-NH2 (staple 1-4, 4-11, Stapled peptide composition; also called Ac-PL3-Asp-Ala-B5-[NHiPr]AsnR-Asp-Ala-Ala-Phe-Val-S8-Phe-BztA-Gln-NH2) [I-535]

>  <log10 of EC50>
3.70

$$$$
>  <BINDER>
XDAXDEAAFQXFXT (not fully specified; N-terminal acetyl (Ac); PL3 at X1, B5 at X4 and S8 at X11 stapled (PL3-B5 and B5-S8, olefin metathesis); BztA at X13; C-terminal amide (NH2), Stapled peptide composition; also called Ac-PL3-Asp-Ala-B5-Asp-Glu-Ala-Ala-Phe-Gln-S8-Phe-BztA-Thr-NH2) [I-507]

>  <log10 of EC50>
2.28

$$$$
>  <BINDER>
XDIXDEAAFQXFXQ (not fully specified; N-terminal acetyl (Ac); PL3 at X1, B5 at X4 and S8 at X11 stapled (PL3-B5 and B5-S8, olefin metathesis); 2OMeF at X12; BztA at X13; C-terminal amide (NH2), Stapled peptide composition; also called Ac-PL3-Asp-Ile-B5-Asp-Glu-Ala-Ala-Phe-Gln-S8-2OMeF-BztA-Gln-NH2) [I-528]

>  <log10 of EC50>
1.80

$$$$
>  <BINDER>
Ac-[αAllylPro]DL[B5(6)]DEAAFQ[S8]F[Bta]Q-NH2 (staple 1-4, 4-11, Stapled peptide composition; also called Ac-PL3-Asp-Leu-B5-Asp-Glu-Ala-Ala-Phe-Gln-S8-Phe-BztA-Gln-NH2) [I-505]

>  <log10 of EC50>
1.36

$$$$
>  <BINDER>
Ac-[αAllylPro]DA[B5(20)]DEAAFN[S8][Phe(2-CONH2)][Bta]H-NH2 (staple 1-4, 4-11, Stapled peptide composition; also called Ac-PL3-Asp-Ala-B5-Asp-Glu-Ala-Ala-Phe-Asn-S8-2CBMF-BztA-His-NH2) [I-513]

>  <log10 of EC50>
2.16

$$$$
>  <BINDER>
Ac-[αAllylPro]DL[B5(6)]DEAAFQ[S8]F[Bta]H-NH2 (staple 1-4, 4-11, Stapled peptide composition; also called Ac-PL3-Asp-Leu-B5-Asp-Glu-Ala-Ala-Phe-Gln-S8-Phe-BztA-His-NH2) [I-506]

>  <log10 of EC50>
1.40

$$$$
>  <BINDER>
Ac-[αAllylPro]DI[B5(20)]DEAAFN[S8][Phe(2-CONH2)][Bta]H-NH2 (staple 1-4, 4-11, Stapled peptide composition; also called Ac-PL3-Asp-Ile-B5-Asp-Glu-Ala-Ala-Phe-Asn-S8-2CBMF-BztA-His-NH2) [I-514]

>  <log10 of EC50>
1.48

$$$$
>  <BINDER>
XDIXDEAAFQXFXQ (not fully specified; N-terminal acetyl (Ac); PL3 at X1, B5 at X4 and S8 at X11 stapled (PL3-B5 and B5-S8, olefin metathesis); 2OMeF at X12; BztA at X13; C-terminal amide (NH2), Stapled peptide composition; also called Ac-PL3-Asp-Ile-B5-Asp-Glu-Ala-Ala-Phe-Gln-S8-2OMeF-BztA-Gln-NH2) [I-527]

>  <log10 of EC50>
1.99

$$$$
>  <BINDER>
XDAXDEAAFQXFXT (not fully specified; N-terminal acetyl (Ac); PL3 at X1, B5 at X4 and S8 at X11 stapled (PL3-B5 and B5-S8, olefin metathesis); BztA at X13; C-terminal amide (NH2), Stapled peptide composition; also called Ac-PL3-Asp-Ala-B5-Asp-Glu-Ala-Ala-Phe-Gln-S8-Phe-BztA-Thr-NH2) [I-508]

>  <log10 of EC50>
1.86

$$$$
>  <BINDER>
Ac-[αAllylPro]DI[B5(20)]DEAAFN[S8][Phe(2-OMe)][Bta]H-NH2 (staple 1-4, 4-11, Stapled peptide composition; also called Ac-PL3-Asp-Ile-B5-Asp-Glu-Ala-Ala-Phe-Asn-S8-2OMeF-BztA-His-NH2) [I-512]

>  <log10 of EC50>
1.30

$$$$

Here is another binder to look at.
Consider the binder Ac-[αAllylPro]DA[B5(21)][(NHEt)AsnR]DAAFV[S8]F[Bta]Q-NH2 (staple 1-4, 4-11, Stapled peptide composition; also called Ac-PL3-Asp-Ala-B5-[NHEt]AsnR-Asp-Ala-Ala-Phe-Val-S8-Phe-BztA-Gln-NH2) [I-536] and give its measured log10 of EC50.
3.65
